# Test system: K562
# Assay details: NCI tumour cell line growth inhibition, 48 h
Active and inactive are the calls of the source. Cut-off read from the data, not from the text of the source: active = GI50 up to about 1.1 µM and inactive = higher.
Value type: GI50

| Compound | System tested | GI50 |
| --- | --- | --- |
| COc1cccc(C2c3cc4c(cc3OC(Nc3ccccc3)C2C)OCO4)c1OC (configuration not stated) | K562 | 2.64 µM (inactive) |
| CCOC1SC(SC)=NN1C(=O)C(OC(C)=O)C(OC(C)=O)C(OC(C)=O)C(OC(C)=O)C(=O)N1N=C(SC)SC1OCC (configuration not stated) | K562 | > 100 µM (inactive) |
| COc1cccc2c1[C@H]1OC(=O)NC1CCCCC2 (some centres not stated) | K562 | > 100 µM (inactive) |
| CC(=O)O[C@@H]1[C@H]2O[C@H]2[C@H]2O[C@@]2(COC(=O)c2ccccc2)[C@H]1OC(C)=O | K562 | > 100 µM (inactive) |
| O=C(c1ccc(-c2ccccc2)cc1)N(Cc1cccnc1)C(=S)N(Cc1cccnc1)C(=O)c1ccc(-c2ccccc2)cc1 | K562 | 0.394 µM (active) |
| CN(CCNC(=S)c1cn(C)c2c1ccc1ccccc12)CCNC(=S)c1cn(C)c2c1ccc1ccccc12 | K562 | 54.8 µM (inactive) |

Lab note: next compound to report on.
Which GI50 is listed for CC(=O)O[C@H]1C(=O)[C@@]2(C)[C@H]([C@H](OC(=O)c3ccccc3)[C@]3(O)C[C@H](OC(=O)[C@H](O)[C@@H](NC(=O)CC(C)C)c4ccccc4)C(C)=C1C3(C)C)[C@]1(OC(C)=O)CO[C@@H]1C[C@@H]2O ?
0.00179 µM (active)

====

# Test system: HCT-15
// values below are reported GI50
Write the answer as a number in µM, unit excluded.

| Compound | Result unit | GI50 |
| --- | --- | --- |
| O=C1C=CC=CC2CC=C[C@@H](O)C12 (stereo partly drawn) | µM | 17.3 |
| C[C@@H](NC(=O)OC1C=CC2(CC1)C(=O)N(C)c1ccccc12)c1cccc2ccccc12 (stereo partly drawn) | µM | 14.9 |
| CC(=O)Nc1ccc(OCC(O)CO)cc1 (stereo not drawn) | µM | 29.5 |
| COP(=O)(OC)/C(=C/c1cn(C(C)=O)c2ccccc12)NC(C)=O | µM | 18.1 |
| FC(F)(F)c1ccc2c(c1)nc(-c1ccc(Cl)cc1)n2CC1CCCN2CCCCC12 (stereo not drawn) | µM | 14.4 |
| O=C1C(Cl)=C(N2C(=O)CCC2=O)C(=O)c2ccccc21 | µM | 13.2 |
| CN(C)CCNC(=O)c1cccc2ccc(-c3ccc(-c4ccccc4)cc3)nc12 | µM | 1.98 |
| C/C(=N\N=C(/S)N1CC2CCC(CC2)C1)c1cccc[n+]1[O-] | µM | 1.8 |

Give GI50 (HCT-15) of the following compound: Cc1ccc(S(=O)(=O)N2CC(CCN)c3ccccc32)cc1 (stereo not drawn)
4.05

What value of GI50 on HCT-15 does C1=C(CC2=C[P+](c3ccccc3)(c3ccccc3)C=C(c3ccccc3)O2)OC(c2ccccc2)=C[P+]1(c1ccccc1)c1ccccc1 have?
1.63

// fetch HCT-15 GI50 for Cc1nn(C(=O)c2ccccc2O)c2c1C(c1ccc(O)cc1O)SC(=N)N2 (stereo not drawn)
3.66

Recall the recorded GI50 for CCc1nc2cc(/N=N/c3c(O)ccc4ccccc34)ccc2[nH]1 with HCT-15 and state it.
12.6

What reported GI50 corresponds to C(=N\N=C1NCCN1)/c1ccc2ccccc2c1 on HCT-15?
18.2

So what GI50 did O=C1Nc2ccccc2/C1=N/NC(=O)c1ccccc1O get with HCT-15?
32.6

GET /values?readout=GI50&system=HCT-15&item= Cn1cnc([N+](=O)[O-])c1Sc1nc2cccnc2s1
11.6

Field: GI50 (HCT-15). Entry: COC(=O)c1c(OC(C)=O)ccc2c1c1c(OC(C)=O)c3ccccc3c(OC(C)=O)c1n2Cc1ccccc1
4.78

Identify the measured GI50 of Cc1ccc(C2NC(=O)c3ccccc3N2)c(C)c1 (stereo not drawn) for HCT-15.
1.08
